molecular target: KIAA1967 DBIRD complex subunit KIAA1967 (Homo sapiens, UniProt Q8N163); construct: isoTOP-ABPP experiments performed in cell lysates (in vitro); endogenous in cells; host or cells: soluble proteome of human cancer cell lines (MDA-MB-231; Ramos and Jurkat also prepared); assay: competitive isoTOP-ABPP; assay type: binding; conditions: 50 uM, 231 sol, in vitro
Sequence (Q8N163 whole entry, one chain of several): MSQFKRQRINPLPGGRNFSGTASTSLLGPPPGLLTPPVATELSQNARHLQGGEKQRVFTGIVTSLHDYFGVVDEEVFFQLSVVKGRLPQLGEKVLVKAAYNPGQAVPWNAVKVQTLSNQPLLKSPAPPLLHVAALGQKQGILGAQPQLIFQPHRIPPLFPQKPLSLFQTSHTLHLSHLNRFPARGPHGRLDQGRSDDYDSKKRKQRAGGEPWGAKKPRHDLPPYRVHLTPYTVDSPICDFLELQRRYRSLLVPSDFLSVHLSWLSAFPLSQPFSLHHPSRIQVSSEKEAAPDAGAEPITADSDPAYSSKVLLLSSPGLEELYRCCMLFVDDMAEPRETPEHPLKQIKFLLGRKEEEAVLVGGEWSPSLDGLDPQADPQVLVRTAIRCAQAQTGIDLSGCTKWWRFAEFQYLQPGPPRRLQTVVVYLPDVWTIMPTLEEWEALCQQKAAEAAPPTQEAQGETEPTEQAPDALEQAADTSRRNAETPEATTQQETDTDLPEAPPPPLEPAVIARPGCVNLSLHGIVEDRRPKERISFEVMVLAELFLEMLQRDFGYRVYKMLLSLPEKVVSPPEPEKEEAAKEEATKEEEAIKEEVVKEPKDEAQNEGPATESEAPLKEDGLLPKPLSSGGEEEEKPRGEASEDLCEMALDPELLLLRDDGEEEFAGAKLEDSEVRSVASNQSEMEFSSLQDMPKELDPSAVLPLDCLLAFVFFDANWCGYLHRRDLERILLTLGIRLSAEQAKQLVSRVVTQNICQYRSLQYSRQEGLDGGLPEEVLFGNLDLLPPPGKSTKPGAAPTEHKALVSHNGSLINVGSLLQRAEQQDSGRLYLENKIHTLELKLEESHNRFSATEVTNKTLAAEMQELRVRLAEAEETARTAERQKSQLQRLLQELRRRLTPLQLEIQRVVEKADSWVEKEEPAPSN
value-kind: isoTOP-ABPP reactivity ratio at lysine Q8N163_K97
Response field accepts a number only; no unit should be typed.

Tell me the measured isoTOP-ABPP reactivity ratio at lysine Q8N163_K97 of O=C(Oc1c(F)c(F)c(F)c(F)c1F)c1ccc2ccccc2n1 , please.
0.7

Repeat for the following compound: Cn1cc(CC(=O)Oc2ccc([N+](=O)[O-])cc2[N+](=O)[O-])c2ccccc21
1.1

Subsequent entry: O=C(Oc1c(F)c(F)c(F)c(F)c1F)C1CCN(C(=O)OCc2ccccc2)CC1
0.9

Lookup O=C(CCc1cn(-c2ccccc2)nc1-c1ccccc1)Oc1ccc([N+](=O)[O-])cc1[N+](=O)[O-]
0.8

Same question for O=C(Oc1ccc([N+](=O)[O-])cc1[N+](=O)[O-])c1cc(C(F)(F)F)cc(C(F)(F)F)c1 please.
0.9

What would you report for O=C(Oc1ccc([N+](=O)[O-])cc1[N+](=O)[O-])C(c1ccccc1)c1ccccc1 [fragment 30, 2,4-Dinitrophenyl 2,2-diphenylacetate] ?
1.0

Same for O=C(CCc1coc2cc(F)ccc2c1=O)Oc1c(F)c(F)c(F)c(F)c1F
0.9
